- targetDesc: human neutrophil elastase (Homo sapiens, UniProt P08246)
- Sequence (P08246 30-267): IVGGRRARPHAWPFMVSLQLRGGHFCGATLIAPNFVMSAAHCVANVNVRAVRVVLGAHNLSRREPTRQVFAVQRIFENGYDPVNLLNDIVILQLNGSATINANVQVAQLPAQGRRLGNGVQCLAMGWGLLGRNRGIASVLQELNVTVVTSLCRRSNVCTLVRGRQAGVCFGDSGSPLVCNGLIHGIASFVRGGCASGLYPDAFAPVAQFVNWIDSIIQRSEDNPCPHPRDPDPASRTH
- testName: Inhibition of human neutrophil elastase (hydrolysis of MeOSuc-AAPV-pNA)
- conditions: substrate MeOSuc-AAPV-pNA 0.3 mM, enzyme 10 nM, 37° C., pH 8; read-out: Human neutrophil elastase (hNE) IC50
Where a SMILES comes first, the peptide text is derived from it. [ ]: non-standard residue; d: D form. The star is where a group is joined. Gly(octyl) = CCCCCCCC[C@H](N)C(=O)O; hTyr = N[C@@H](CCc1ccc(O)cc1)C(=O)O; AllylGly = C=CC[C@H](N)C(=O)O; Octanoyl = CCCCCCCC(=O)*; Dab = NCC[C@H](N)C(=O)O
measureName: IC50 (nM)
// note: answer is a bare numeric in nM

Reference set (4 entries):
[
  {
    "molecule": "CCCCCCCC[C@@H]1NC(=O)[C@@H]2CCCN2C(=O)[C@H]2CCCN2C(=O)[C@H](CO)NC(=O)[C@H](CCCCN)NC(=O)[C@H](CCC(N)=O)NC(=O)[C@@H]2CCCN2C(=O)[C@@H]2CCCN2C(=O)[C@H]([C@@H](C)CC)NC(=O)[C@H](CO)NC(=O)[C@H](C)NC(=O)[C@H]([C@@H](C)O)NC(=O)[C@H](CCc2ccc(O)cc2)NC1=O [Example 47] (cyclo([Gly(octyl)][hTyr]TASIPPQKS[dP]P))",
    "IC50, nM": 1.4
  },
  {
    "molecule": "CCCCCCCC(=O)NCC[C@@H]1NC(=O)[C@@H]2CCCN2C(=O)[C@H]2CCCN2C(=O)[C@H]([C@@H](C)O)NC(=O)[C@H](CCCCN)NC(=O)[C@H](CCC(N)=O)NC(=O)[C@@H]2CCCN2C(=O)[C@@H]2CCCN2C(=O)[C@H]([C@@H](C)CC)NC(=O)[C@H](CO)NC(=O)[C@H](C)NC(=O)[C@H]([C@@H](C)O)NC(=O)[C@H](CCC(=O)O)NC1=O [Example 15] (cyclo([Dab](Octanoyl)ETASIPPQKT[dP]P))",
    "IC50, nM": 19.1
  },
  {
    "molecule": "CCCCCCCC[C@@H]1NC(=O)[C@H](CCCCN)NC(=O)[C@@H](CO)NC(=O)[C@H]([C@@H](C)O)NC(=O)[C@H](CCCCN)NC(=O)[C@H](CCC(N)=O)NC(=O)[C@@H]2CCCN2C(=O)[C@@H]2CCCN2C(=O)[C@H]([C@@H](C)CC)NC(=O)[C@H](CO)NC(=O)[C@H](C)NC(=O)[C@H]([C@@H](C)O)NC(=O)[C@H](CCC(=O)O)NC1=O [Example 32] (cyclo([Gly(octyl)]ETASIPPQKT[dS]K))",
    "IC50, nM": 22.3
  },
  {
    "molecule": "CCCCCCCC[C@@H]1NC(=O)[C@H](Cc2ccc(O)cc2)NC(=O)[C@@H](CCCCN)NC(=O)[C@H]([C@@H](C)O)NC(=O)[C@H](CCCCN)NC(=O)[C@H](CCC(N)=O)NC(=O)[C@@H]2CCCN2C(=O)[C@@H]2CCCN2C(=O)[C@H]([C@@H](C)CC)NC(=O)[C@H](CO)NC(=O)[C@H](C)NC(=O)[C@H]([C@@H](C)O)NC(=O)[C@H](CCC(=O)O)NC1=O [Example 27] (cyclo([Gly(octyl)]ETASIPPQKT[dK]Y))",
    "IC50, nM": 10.1
  }
]

Consider the molecule C=CC[C@@H]1NC(=O)[C@H]([C@@H](C)O)NC(=O)[C@H](CCC(=O)O)NC(=O)[C@H](CCC(=O)N[C@@H](Cc2ccccc2)C(=O)O)NC(=O)[C@@H]2CCCN2C(=O)[C@H]2CCCN2C(=O)[C@H]([C@@H](C)O)NC(=O)[C@H](CCCCN)NC(=O)[C@H](CCC(N)=O)NC(=O)[C@@H]2CCCN2C(=O)[C@@H]2CCCN2C(=O)[C@H]([C@@H](C)CC)NC(=O)[C@H](CO)NC1=O [Example 19] (cyclo(E(Phe)ET[AllylGly]SIPPQKT[dP]P)) and give its measured IC50.
33
